Biological target: Ylr278c (UniProt Q05854)
Sequence (Q05854 whole entry): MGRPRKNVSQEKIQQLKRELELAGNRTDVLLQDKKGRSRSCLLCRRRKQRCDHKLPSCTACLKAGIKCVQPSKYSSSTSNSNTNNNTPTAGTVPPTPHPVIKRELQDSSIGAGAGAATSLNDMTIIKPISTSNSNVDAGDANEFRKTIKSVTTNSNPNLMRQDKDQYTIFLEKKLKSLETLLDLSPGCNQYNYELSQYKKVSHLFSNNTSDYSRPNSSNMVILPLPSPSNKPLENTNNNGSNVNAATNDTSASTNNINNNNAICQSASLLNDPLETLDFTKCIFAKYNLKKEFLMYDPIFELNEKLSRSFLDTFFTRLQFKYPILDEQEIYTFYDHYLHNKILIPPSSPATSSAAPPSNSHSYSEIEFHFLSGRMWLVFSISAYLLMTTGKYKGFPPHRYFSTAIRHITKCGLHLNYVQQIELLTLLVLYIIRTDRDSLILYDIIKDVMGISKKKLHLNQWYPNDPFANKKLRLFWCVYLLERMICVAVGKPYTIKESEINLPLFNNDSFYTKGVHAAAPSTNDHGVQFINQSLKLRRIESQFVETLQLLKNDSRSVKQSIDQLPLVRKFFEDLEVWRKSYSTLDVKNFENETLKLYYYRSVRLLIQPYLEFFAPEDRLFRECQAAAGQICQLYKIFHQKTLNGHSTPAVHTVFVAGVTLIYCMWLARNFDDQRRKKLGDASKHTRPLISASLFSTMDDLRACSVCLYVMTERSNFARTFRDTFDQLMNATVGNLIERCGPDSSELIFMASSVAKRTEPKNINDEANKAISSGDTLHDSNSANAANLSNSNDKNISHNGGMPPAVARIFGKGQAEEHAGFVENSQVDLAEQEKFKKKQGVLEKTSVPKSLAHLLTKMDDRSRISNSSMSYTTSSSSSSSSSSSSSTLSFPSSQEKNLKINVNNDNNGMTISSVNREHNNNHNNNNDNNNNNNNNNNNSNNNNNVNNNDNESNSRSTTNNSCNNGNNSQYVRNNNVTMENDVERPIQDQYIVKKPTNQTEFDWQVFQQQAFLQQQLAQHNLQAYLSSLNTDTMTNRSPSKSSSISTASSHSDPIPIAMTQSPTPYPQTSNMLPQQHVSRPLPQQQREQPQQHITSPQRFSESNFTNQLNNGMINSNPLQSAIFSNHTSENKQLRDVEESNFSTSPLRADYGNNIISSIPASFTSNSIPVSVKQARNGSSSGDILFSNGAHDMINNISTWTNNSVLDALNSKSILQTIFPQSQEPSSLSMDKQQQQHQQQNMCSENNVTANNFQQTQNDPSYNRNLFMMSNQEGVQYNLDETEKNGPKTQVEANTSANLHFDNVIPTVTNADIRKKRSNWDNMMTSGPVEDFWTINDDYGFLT
Experiment: PBM E-score (8-mer binding enrichment) (E-score (-0.5 to 0.5)); higher = stronger / more preferred TF binding
Conditions: protein concentration: 200 nM; construct: GST-DNA-binding domain
Over roughly 33,000 sequences, “E-score (-0.5 to 0.5)” has its median near -0.054; the highest 2% begin near 0.39. Many of the other results were omitted from the sample, so the highest values are more common in it than they were.
testReadout: PBM E-score

>>> recordedmeasurement("ACGGGATA")
0.261
>>> recordedmeasurement("ATCCGCGC")
0.251
>>> recordedmeasurement("CATCACGC")
0.0744
>>> recordedmeasurement("CTCCGCGC")
0.429
>>> recordedmeasurement("GAGCGGAC")
0.321

For each of the sequences below, state PBM E-score.
1. TCCTCCGA
2. GAACCAGC
3. CTCCGTCC
4. CTGGGCAC
5. ACGGACCG
6. CCGGGACC
7. ATCCGCGA

0.43
-0.126
0.449
-0.183
0.335
0.408
0.253
